Target: rat mGlu2 (Rattus norvegicus (Rat), UniProt P31421)
Sequence (P31421 19-872): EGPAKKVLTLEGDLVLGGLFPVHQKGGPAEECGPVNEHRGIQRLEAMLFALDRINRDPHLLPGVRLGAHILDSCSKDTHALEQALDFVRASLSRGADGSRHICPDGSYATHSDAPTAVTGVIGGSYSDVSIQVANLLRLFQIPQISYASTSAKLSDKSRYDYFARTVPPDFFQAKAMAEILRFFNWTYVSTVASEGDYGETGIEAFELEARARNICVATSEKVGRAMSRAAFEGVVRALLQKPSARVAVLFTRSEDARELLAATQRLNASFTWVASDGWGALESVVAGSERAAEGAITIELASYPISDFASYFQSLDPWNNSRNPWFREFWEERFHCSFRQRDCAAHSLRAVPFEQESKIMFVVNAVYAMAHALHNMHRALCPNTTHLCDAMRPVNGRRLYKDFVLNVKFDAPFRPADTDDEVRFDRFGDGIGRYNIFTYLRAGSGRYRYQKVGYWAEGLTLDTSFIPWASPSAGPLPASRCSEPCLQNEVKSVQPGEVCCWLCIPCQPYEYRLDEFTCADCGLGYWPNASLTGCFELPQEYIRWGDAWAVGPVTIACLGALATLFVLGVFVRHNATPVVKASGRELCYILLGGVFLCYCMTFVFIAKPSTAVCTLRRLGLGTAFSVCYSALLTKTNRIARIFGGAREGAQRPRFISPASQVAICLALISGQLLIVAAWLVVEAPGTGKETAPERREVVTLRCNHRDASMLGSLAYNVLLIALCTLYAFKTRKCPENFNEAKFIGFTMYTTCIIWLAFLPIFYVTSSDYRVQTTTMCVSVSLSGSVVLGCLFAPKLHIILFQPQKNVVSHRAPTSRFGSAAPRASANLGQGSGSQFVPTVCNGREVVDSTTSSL
Assay: mGlu2 Ca2+ flux assay
Settings: Gα15 HEK293 cells stably expressing rat mGlu2; glutamate EC80; >10,000 = no plateau; >30,000 = no measurable activity
pIC50: −log10 of the molar value.
EXPERIMENTAL READOUT: pIC50

STRUCTURE	RESULT VALUE
C[C@@H]1CN(CCOc2cnc(C(N)=O)cc2-c2ccc(F)cc2)C[C@H](C)O1	< 5.00

Problem: Consider the molecule "N#Cc1cc(-c2ccc(F)cc2)c(OC2CN(c3ccnc(C(F)(F)F)c3)C2)cn1" and give its measured pIC50.
Result: < 4.52

Problem: Consider the molecule "Cn1cc(-c2cc(C(N)=O)ncc2OCc2cccnc2)cn1" and give its measured pIC50.
Result: < 4.52

* * *

Target: rat mGlu2 (Rattus norvegicus (Rat))
Experiment: mGlu2 Ca2+ flux assay
Assay type: cell-based
Details: amplitude of response in the presence of 30 μM test compound as percentage of maximal response to glutamate; read-out: rat mGlu2 Glu max
Method: Gα15 HEK293 cells stably expressing rat mGlu2 were plated in black-walled, clear-bottomed, poly-D-lysine coated 384-well plates in 20 μL of assay medium (DMEM containing 10% dialyzed FBS, 20 mM HEPES, and 1 mM sodium pyruvate) at a density of 12K cells/well. […] Ca^2+ flux was measured using the Functional Drug Screening System (FDSS7000, Hamamatsu, Japan). […] Calcium fluorescence measures were recorded as fold over basal fluorescence; raw data was then normalized to the maximal response to glutamate. […]
EXPERIMENTAL READOUT: remaining activity at 30 µM (%)

Field: example entries. Status: answers known.
COMPOUND	EXPERIMENTAL READOUT	RESULT VALUE
C[C@@H]1CN(CCCOc2cnc(C(N)=O)cc2-c2ccc(F)cc2)C[C@H](C)O1	remaining activity at 30 µM	15.8
CC(CNc1cnc(C#N)cc1-c1ccc(F)cc1)N1CCOCC1 (centres unmarked)	remaining activity at 30 µM	36.2
NC(=O)c1cc(-c2ccc(F)cc2)c(OCCOc2ccc(F)cc2)cn1	remaining activity at 30 µM	-10.7
NC(=O)c1cc(-c2ccc(F)cc2)c(OCCOc2cc(F)cc(Br)c2)cn1	remaining activity at 30 µM	3.34

P. N#Cc1cc(-c2ccc(F)cc2)c(OCCOCc2ccccc2)cn1
Q. NC(=O)c1cc(-c2ccc(F)cc2)c(N2CC(Oc3cccnc3)C2)cn1
R. Cc1ncc(OCCCOc2cnc(C(N)=O)cc2-c2ccc(F)cc2)cn1
Problem: With regard to remaining activity at 30 µM, arrange the entries in ascending order, please. Put the labels in the order asked and list them.
Result: Q, R, P

I. NC(=O)c1cc(-c2ccc(F)cc2)c(OCc2ccc(Cl)nc2)cn1
II. Cc1ccc(OC(C)COc2cnc(C#N)cc2-c2ccc(F)cc2)cn1 (centres unmarked)
III. N#Cc1cccc(OCCOc2cnc(C(N)=O)cc2-c2ccc(F)cc2)c1F
IV. Cc1ncc(OCCOc2cnc(C(N)=O)cc2-c2ccc(F)cc2)cn1
Problem: With regard to remaining activity at 30 µM, arrange the entries in ascending order, please. Put the labels in the order asked and list them.
Result: III, I, IV, II
(III: 1.07%, I: 2%, IV: 20.3%, II: 35.8%)

P. NC(=O)c1cc(-c2ccc(F)cc2)c(OCCOc2ccnc(F)c2)cn1
Q. CC(COc1cnc(C#N)cc1-c1ccc(F)cc1)Oc1ccnc(C(F)(F)F)c1 (centres unmarked)
Problem: // returns P or Q , whichever has the lower remaining activity at 30 µM # answer = label of selected item
Result: P

* * *

Target: rat mGlu2 (Rattus norvegicus (Rat))
Assay: mGlu2 Ca2+ flux assay
Conditions: Gα15 HEK293 cells stably expressing rat mGlu2; glutamate EC80; >10,000 = no plateau; >30,000 = no measurable activity
Description: Gα15 HEK293 cells stably expressing rat mGlu2 were plated in black-walled, clear-bottomed, poly-D-lysine coated 384-well plates in 20 μL of assay medium (DMEM containing 10% dialyzed FBS, 20 mM HEPES, and 1 mM sodium pyruvate) at a density of 12K cells/well. […] Ca^2+ flux was measured using the Functional Drug Screening System (FDSS7000, Hamamatsu, Japan). […] Calcium fluorescence measures were recorded as fold over basal fluorescence; raw data was then normalized to the maximal response to glutamate. […]
EXPERIMENTAL READOUT: IC50

STRUCTURE	IC50
N#Cc1cc(-c2ccc(F)cc2)c(OCc2ccc(Cl)nc2)cn1	> 30 µM
C[C@@H]1CN(CCCOc2cnc(C(N)=O)cc2-c2ccc(F)cc2)C[C@H](C)O1	> 10 µM
N#Cc1cc(-c2ccc(F)cc2)c(OCCc2cccnc2)cn1	> 30 µM

// switching to the query molecule
Problem: Consider the molecule "N#Cc1cc(-c2ccc(F)cc2)c(OCCCN2CCOCC2)cn1" and give its measured IC50.
Result: > 30 µM

* * *

pIC50 values for the compounds below.
Target: rat mGlu2 (Rattus norvegicus (Rat), UniProt P31421)
Test: mGlu2 Ca2+ flux assay
Conditions: Gα15 HEK293 cells stably expressing rat mGlu2; glutamate EC80; >10,000 = no plateau; >30,000 = no measurable activity
pIC50: −log10 of the molar value.

STRUCTURE	pIC50
NC(=O)c1cc(-c2ccc(F)cc2)c(N2CCC(Oc3ccnc(C(F)(F)F)c3)CC2)cn1	< 5.00
CN(CCN1CCOCC1)c1cnc(C#N)cc1-c1ccc(F)cc1	< 5.00
N#Cc1cc(-c2ccc(F)cc2)c(OC2CCN(c3ccnc(C(F)(F)F)c3)CC2)cn1	< 4.52
NC(=O)c1cc(-c2ccc(F)cc2)c(OCCOc2ccc(C(F)(F)F)nc2)cn1	5.88

Problem: Consider the compound "NC(=O)c1cc(-c2ccc(F)cc2)c(OCCCOc2ccnc(C(F)(F)F)c2)cn1" and give its measured pIC50.
Result: 5.80

Problem: Consider the compound "NC(=O)c1cc(-c2ccc(F)cc2)c(OCCOc2cccc(Br)c2F)cn1" and give its measured pIC50.
Result: < 4.52

* * *

Molecular target: rat mGlu2 (Rattus norvegicus (Rat), UniProt P31421)
Experiment: mGlu2 Ca2+ flux assay
Conditions: Gα15 HEK293 cells stably expressing rat mGlu2; glutamate EC80; >10,000 = no plateau; >30,000 = no measurable activity
EXPERIMENTAL READOUT: IC50 (µM)

Field: example entries. Status: answers known.
STRUCTURE	IC50 (µM)
NC(=O)c1cc(-c2ccc(F)cc2)c(OC2CCN(c3ccnc(C(F)(F)F)c3)CC2)cn1	4.19
NC(=O)c1cc(-c2ccc(F)cc2)c(OCc2cncs2)cn1	0.263
N#Cc1cc(-c2ccc(F)cc2)c(OCCOCc2ccccc2)cn1	4.25
NC(=O)c1cc(-c2ccc(F)cc2)c(NCCCN2CCOCC2)cn1	9.87
NC(=O)c1cc(-c2ccc(F)cc2)c(OC2CN(c3ccnc(C(F)(F)F)c3)C2)cn1	4.14
Cc1ccc(OCCCOc2cnc(C(N)=O)cc2-c2ccc(F)cc2)cn1	2.87

1. NC(=O)c1cc(-c2ccc(F)cc2)c(OCCCN2CCC(F)(F)CC2)cn1
2. NC(=O)c1cc(-c2ccc(F)cc2)c(OCc2cccc(Br)c2F)cn1
Problem: // returns 1 or 2 , whichever has the lower IC50 # answer = label of selected item
Result: 2

* * *

Target: rat mGlu2 (Rattus norvegicus (Rat), UniProt P31421)
Experiment: mGlu2 Ca2+ flux assay
Type: cell-based
Settings: amplitude of response in the presence of 30 μM test compound as percentage of maximal response to glutamate; read-out: rat mGlu2 Glu max
EXPERIMENTAL READOUT: remaining activity at 30 µM (%)

a. NC(=O)c1cc(-c2ccc(F)cc2)c(OCc2ccc(Br)cc2)cn1 [Compound 33]
b. NC(=O)c1cc(-c2ccc(F)cc2)c(OCCOc2cccnc2)cn1 [Compound 54]
Problem: // returns a or b , whichever has the lower remaining activity at 30 µM # answer = label of selected item
Result: b

* * *

Target: rat mGlu2 (Rattus norvegicus (Rat))
Assay: mGlu2 Ca2+ flux assay
Conditions: Gα15 HEK293 cells stably expressing rat mGlu2; glutamate EC80; >10,000 = no plateau; >30,000 = no measurable activity
pIC50: −log10 of the molar value.
pIC50 values for the molecules below.

Field: example entries. Status: answers known.
MOLECULE	pIC50
CC(Oc1cnc(C#N)cc1-c1ccc(F)cc1)c1cccnc1 (centres unmarked)	< 4.52
Cc1ncc(OCCOc2cnc(C(N)=O)cc2-c2ccc(F)cc2)cn1	< 5.00
CC(COc1cnc(C#N)cc1-c1ccc(F)cc1)Oc1ccnc(C(F)(F)F)c1 (centres unmarked)	< 5.00
N#Cc1cc(-c2ccc(F)cc2)c(OCCCOc2cccnc2)cn1	< 5.00

// switching to the query molecule
Problem: Consider the molecule "N#Cc1cc(-c2ccc(F)cc2)c(OCC2CCOCC2)cn1" and give its measured pIC50.
Result: < 4.52

Ref: patent US10538491B2
